Sourced from patent US20240418701A1

- System Tested: MspA-PBA (phenylboronic acid modified hetero-octameric (N90C)1(M2)7 MspA) (Mycolicibacterium smegmatis, UniProt A0QR29, D117C/D118N/D120N/D145R/D161R/E166K)
- Construct: H6 (hexa-histidine) (C); 3-(maleimide) phenylboronic acid (MPBA) adduct on the thiol of Cys90; made in house; host or cells: E. coli BL21 (DE3) pLysS, co-expression from pETDuet-1
- Type: binding, Mycobacterium smegmatis
- Measurement Setup: NMP 300 μM in cis, +200 mV, N=3
Readings of τon (mean inter-event interval) for the listed compounds

Compound	τon (mean inter-event interval)
O=c1ccn([C@@H]2O[C@H](COP(=O)(O)O)[C@@H](O)[C@H]2O)c(=O)[nH]1 [UMP, uridine-5′-monophosphate]	2097.9 ± 474.7 ms
Nc1ccn([C@@H]2O[C@H](COP(=O)(O)O)[C@@H](O)[C@H]2O)c(=O)n1 [CMP, Cytidine-5′-monophosphate]	1511.6 ± 108.3 ms
Nc1nc2c(ncn2[C@@H]2O[C@H](COP(=O)(O)O)[C@@H](O)[C@H]2O)c(=O)[nH]1 [GMP, guanosine-5′-monophosphate]	1473.1 ± 44.4 ms
